# Test description: Metabolic stability in mouse liver microsomes assessed as degradation at 3 uM in presence of NADPH measured upto 45 mins by HPLC-MS analysis
# Format: ADME, Microsome
# Settings: read-out: CLH
Measurement kind: microsomal CLint at 3 µM

**Query** Any idea what its microsomal CLint at 3 µM is? The compound is FC(F)(F)c1cc(NCc2ccc(Cl)cc2)nc(NCCN2CCCCC2)n1
**Result** 179 µL/min/mg

###

# Test description: Metabolic stability in mouse liver microsomes assessed as half life at 3 uM in presence of NADPH by HPLC-MS analysis
# Assay type: ADME, Microsome
Measurement kind: half-life at 3 µM (min)
Give the value in min but do not write min after it.

**Query** Any idea what its half-life at 3 µM is? The molecule is FC(F)(F)c1cc(NCc2ccc(Cl)cc2)nc(NCCN2CCCCC2)n1
**Result** 8.6

###

Task for the reader: assign each of the following molecules its reported solubility thermodynamic at 24 h.
# Test description: Solubility of the compound in simulated gastric fluid (SGF,pH 1.2) incubated for 24 hrs by shake-flask method
# Assay type: ADME
Give the value in µg/mL but do not write µg/mL after it.

**Query** Any idea what its solubility thermodynamic at 24 h is? The molecule is CC1(C)CC(Nc2nccc(Nc3ccc(-c4ccccc4)cc3)n2)CC(C)(C)N1
**Result** 2280

**Query** Any idea what its solubility thermodynamic at 24 h is? The molecule is FC(F)(F)c1cc(Nc2ccc(-c3ccccc3)cc2)nc(NCCN2CCCCC2)n1
**Result** 506

**Query** Any idea what its solubility thermodynamic at 24 h is? The molecule is FC(F)(F)c1cc(NCc2ccc(Cl)cc2)nc(NCCN2CCCCC2)n1
**Result** 76

**Query** Any idea what its solubility thermodynamic at 24 h is? The molecule is c1ccc(-c2ccc(Nc3ccnc(NCCN4CCCCC4)n3)cc2)cc1
**Result** 108

###

# Test description: Solubility of the compound in phosphate-buffered saline solution (PBS,pH 7.4) incubated for 24 hrs by shake-flask method
# Assay type: physicochemical
Measurement kind: solubility thermodynamic at 24 h
Please answer in the form of a number followed by its unit of measurement.

**Query** Any idea what its solubility thermodynamic at 24 h is? The molecule is CC1(C)CC(Nc2nccc(Nc3ccc(-c4ccccc4)cc3)n2)CC(C)(C)N1
**Result** 93 µg/mL

**Query** Any idea what its solubility thermodynamic at 24 h is? The molecule is FC(F)(F)c1cc(NCc2ccc(Cl)cc2)nc(NCCN2CCCCC2)n1
**Result** 507 µg/mL

**Query** Any idea what its solubility thermodynamic at 24 h is? The molecule is c1ccc(-c2ccc(Nc3ccnc(NCCN4CCCCC4)n3)cc2)cc1
**Result** 32 µg/mL

**Query** Any idea what its solubility thermodynamic at 24 h is? The molecule is FC(F)(F)c1cc(Nc2ccc(-c3ccccc3)cc2)nc(NCCN2CCCCC2)n1
**Result** 4 µg/mL

###

# Test description: Solubility of the compound in simulated intestinal fluid (SIF,pH 6.8) incubated for 24 hrs by shake-flask method
# Format: ADME
Measurement kind: solubility thermodynamic at 24 h (µg/mL)
Give the value in µg/mL but do not write µg/mL after it.

**Query** Any idea what its solubility thermodynamic at 24 h is? The compound is FC(F)(F)c1cc(Nc2ccc(-c3ccccc3)cc2)nc(NCCN2CCCCC2)n1
**Result** 10

**Query** Any idea what its solubility thermodynamic at 24 h is? The compound is CC1(C)CC(Nc2nccc(Nc3ccc(-c4ccccc4)cc3)n2)CC(C)(C)N1
**Result** 580

**Query** Any idea what its solubility thermodynamic at 24 h is? The compound is FC(F)(F)c1cc(NCc2ccc(Cl)cc2)nc(NCCN2CCCCC2)n1
**Result** 1690

**Query** Any idea what its solubility thermodynamic at 24 h is? The compound is c1ccc(-c2ccc(Nc3ccnc(NCCN4CCCCC4)n3)cc2)cc1
**Result** 324
